# STUDY_SYSTEM: T1, mouse programmed cell death protein 1 Fc fusion protein (mPD-1-Fc), mPD-1 C60S (aa 25-167) (Mus musculus, UniProt Q02242, stabilised)
# T1 construct: not cleaved; source: Expi293F, purified (Protein A, SEC; dimeric fraction); not shown: Fc (human), C-terminal, kept
# EXPERIMENT_DESCRIPTION: SPR; Carterra LSA; Fab from the ammonium sulfate precipitate of the culture supernatant immobilised on a NiHC200M chip; hPD-1 (1-1024 nM) or mPD-1-Fc (4-1024 nM) as analyte, fourfold dilution series, no regeneration; HBS-EP pH 7.4, 25 °C; medians over the spots of a construct, KD = koff/kon
# STATED_CONDITIONS: one partner purified
Labelling: Kd reported below 0.3 µM becomes Yes; at or above becomes No.

Some entries whose results are on file:
BINDER: toripalimab Fab H.E33A (Fab, V domains shown, heavy chain of Sm3 with this change; numbers count from the chain's first residue; as the light chain of Sm3; source: Brevibacillus, culture supernatant (ammonium sulfate precipitate); not shown: 6xHis, C-terminal, kept; 6xHN, C-terminal, kept) VH: QGQLVQSGAEVKKPGASVKVSCKASGYTFTDYAMHWVRQAPIHGLEWIGVIESETGGTAYNQKFKGRVTITADKSTSTAYMELSSLRSEDTAVYYCAREGITTVATTYYWYFDVWGQGTTVTVSS VL: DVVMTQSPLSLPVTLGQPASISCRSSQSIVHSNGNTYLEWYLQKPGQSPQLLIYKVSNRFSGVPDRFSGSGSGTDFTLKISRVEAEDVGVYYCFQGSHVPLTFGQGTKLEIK
CLASSIFICATION: Yes

BINDER: toripalimab Fab H.T55A (Fab, V domains shown, heavy chain of Sm3 with this change; numbers count from the chain's first residue; as the light chain of Sm3; source: Brevibacillus, culture supernatant (ammonium sulfate precipitate); not shown: 6xHis, C-terminal, kept; 6xHN, C-terminal, kept) VH: QGQLVQSGAEVKKPGASVKVSCKASGYTFTDYEMHWVRQAPIHGLEWIGVIESEAGGTAYNQKFKGRVTITADKSTSTAYMELSSLRSEDTAVYYCAREGITTVATTYYWYFDVWGQGTTVTVSS VL: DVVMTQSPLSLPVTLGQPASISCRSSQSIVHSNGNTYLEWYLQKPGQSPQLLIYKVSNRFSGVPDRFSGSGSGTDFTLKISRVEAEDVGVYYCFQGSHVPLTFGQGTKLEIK
CLASSIFICATION: No

BINDER: toripalimab Fab H.D31Y (Fab, V domains shown, heavy chain of Sm3 with this change; numbers count from the chain's first residue; as the light chain of Sm3; source: Brevibacillus, culture supernatant (ammonium sulfate precipitate); not shown: 6xHis, C-terminal, kept; 6xHN, C-terminal, kept) VH: QGQLVQSGAEVKKPGASVKVSCKASGYTFTYYEMHWVRQAPIHGLEWIGVIESETGGTAYNQKFKGRVTITADKSTSTAYMELSSLRSEDTAVYYCAREGITTVATTYYWYFDVWGQGTTVTVSS VL: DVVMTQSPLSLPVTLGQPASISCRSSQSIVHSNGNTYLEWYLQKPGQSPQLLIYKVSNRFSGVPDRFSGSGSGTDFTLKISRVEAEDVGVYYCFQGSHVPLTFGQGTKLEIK
CLASSIFICATION: Yes

BINDER: toripalimab Fab L.N33A (Fab, V domains shown, as the heavy chain of Sm3; light chain of Sm3 with this change; numbers count from the chain's first residue; source: Brevibacillus, culture supernatant (ammonium sulfate precipitate); not shown: 6xHis, C-terminal, kept; 6xHN, C-terminal, kept) VH: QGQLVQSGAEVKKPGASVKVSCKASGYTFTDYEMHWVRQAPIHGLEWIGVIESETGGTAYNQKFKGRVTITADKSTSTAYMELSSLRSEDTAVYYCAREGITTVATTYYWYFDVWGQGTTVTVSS VL: DVVMTQSPLSLPVTLGQPASISCRSSQSIVHSAGNTYLEWYLQKPGQSPQLLIYKVSNRFSGVPDRFSGSGSGTDFTLKISRVEAEDVGVYYCFQGSHVPLTFGQGTKLEIK
CLASSIFICATION: Yes

Now for a further binder.
Does the reported Kd of the following binder sit strictly below 0.3 µM? toripalimab Fab L.S28A (Fab, V domains shown, as the heavy chain of Sm3; light chain of Sm3 with this change; numbers count from the chain's first residue; source: Brevibacillus, culture supernatant (ammonium sulfate precipitate); not shown: 6xHis, C-terminal, kept; 6xHN, C-terminal, kept) VH: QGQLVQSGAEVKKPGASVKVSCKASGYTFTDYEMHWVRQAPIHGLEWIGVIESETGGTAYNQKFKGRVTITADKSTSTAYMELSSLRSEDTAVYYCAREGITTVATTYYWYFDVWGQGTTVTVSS VL: DVVMTQSPLSLPVTLGQPASISCRSSQAIVHSNGNTYLEWYLQKPGQSPQLLIYKVSNRFSGVPDRFSGSGSGTDFTLKISRVEAEDVGVYYCFQGSHVPLTFGQGTKLEIK
Yes
